Molecular target: mouse melanocortin-3 receptor (mouse, UniProt P33033 1-323)
Sequence (P33033 whole entry): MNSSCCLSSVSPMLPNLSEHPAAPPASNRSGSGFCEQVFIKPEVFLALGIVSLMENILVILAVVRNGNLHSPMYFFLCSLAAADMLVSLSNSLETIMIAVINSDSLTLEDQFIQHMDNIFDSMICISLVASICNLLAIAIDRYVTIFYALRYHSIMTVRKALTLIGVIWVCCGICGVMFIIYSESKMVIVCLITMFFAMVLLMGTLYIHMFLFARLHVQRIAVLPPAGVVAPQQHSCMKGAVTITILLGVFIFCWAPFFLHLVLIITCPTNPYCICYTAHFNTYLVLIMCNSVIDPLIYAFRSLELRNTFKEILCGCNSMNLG
Experiment: cell-based or functional assay
Square brackets hold non-standard residues; d marks the D form. hPhe = N[C@@H](CCc1ccccc1)C(=O)O; Nle = CCCC[C@H](N)C(=O)O; Dap = NC[C@H](N)C(=O)O
attribute.measured: antagonist pA2 (Schild, agonist NDP-MSH)

binder: cyclo(PRFFRA[Nle][dP]) (SMILES CCCC[C@@H]1NC(=O)[C@H](C)NC(=O)[C@H](CCCNC(=N)N)NC(=O)[C@H](Cc2ccccc2)NC(=O)[C@H](Cc2ccccc2)NC(=O)[C@H](CCCNC(=N)N)NC(=O)[C@@H]2CCCN2C(=O)[C@H]2CCCN2C1=O) [c[Pro-Arg-Phe-Phe-Arg-Ala-Nle-DPro]]
antagonist pA2 (Schild, agonist NDP-MSH): 7.5

binder: cyclo(PRFFRSF[dP]) (SMILES N=C(N)NCCC[C@@H]1NC(=O)[C@H](Cc2ccccc2)NC(=O)[C@H](Cc2ccccc2)NC(=O)[C@H](CCCNC(=N)N)NC(=O)[C@@H]2CCCN2C(=O)[C@H]2CCCN2C(=O)[C@H](Cc2ccccc2)NC(=O)[C@H](CO)NC1=O) [c[Pro-Arg-Phe-Phe-Arg-Ser-Phe-DPro]]
antagonist pA2 (Schild, agonist NDP-MSH): 7.1

binder: cyclo(PRF[hPhe][Dap]SF[dP]) (SMILES N=C(N)NCCC[C@@H]1NC(=O)[C@@H]2CCCN2C(=O)[C@H]2CCCN2C(=O)[C@H](Cc2ccccc2)NC(=O)[C@H](CO)NC(=O)[C@H](CN)NC(=O)[C@H](CCc2ccccc2)NC(=O)[C@H](Cc2ccccc2)NC1=O) [c[Pro-Arg-Phe-hPhe-Dap-Ser-Phe-DPro]]
antagonist pA2 (Schild, agonist NDP-MSH): 7.2

binder: cyclo(PRFF[Dap]S[Nle][dP]) (SMILES CCCC[C@@H]1NC(=O)[C@H](CO)NC(=O)[C@H](CN)NC(=O)[C@H](Cc2ccccc2)NC(=O)[C@H](Cc2ccccc2)NC(=O)[C@H](CCCNC(=N)N)NC(=O)[C@@H]2CCCN2C(=O)[C@H]2CCCN2C1=O) [c[Pro-Arg-Phe-Phe-Dap-Ser-Nle-DPro]]
antagonist pA2 (Schild, agonist NDP-MSH): 6.5

binder: cyclo(PRFFRAF[dP]) [c[Pro-Arg-Phe-Phe-Arg-Ala-Phe-DPro]]
antagonist pA2 (Schild, agonist NDP-MSH): 7.4

binder: cyclo(PRFF[Dap]A[Nle][dP]) (SMILES CCCC[C@@H]1NC(=O)[C@H](C)NC(=O)[C@H](CN)NC(=O)[C@H](Cc2ccccc2)NC(=O)[C@H](Cc2ccccc2)NC(=O)[C@H](CCCNC(=N)N)NC(=O)[C@@H]2CCCN2C(=O)[C@H]2CCCN2C1=O) [c[Pro-Arg-Phe-Phe-Dap-Ala-Nle-DPro]]
antagonist pA2 (Schild, agonist NDP-MSH): 7.1

binder: cyclo(PRFFNSF[dP]) (SMILES N=C(N)NCCC[C@@H]1NC(=O)[C@@H]2CCCN2C(=O)[C@H]2CCCN2C(=O)[C@H](Cc2ccccc2)NC(=O)[C@H](CO)NC(=O)[C@H](CC(N)=O)NC(=O)[C@H](Cc2ccccc2)NC(=O)[C@H](Cc2ccccc2)NC1=O) [c[Pro-Arg-Phe-Phe-Asn-Ser-Phe-DPro]]
antagonist pA2 (Schild, agonist NDP-MSH): 6.1

binder: cyclo(PRFF[Dap]SF[dP]) (SMILES N=C(N)NCCC[C@@H]1NC(=O)[C@@H]2CCCN2C(=O)[C@H]2CCCN2C(=O)[C@H](Cc2ccccc2)NC(=O)[C@H](CO)NC(=O)[C@H](CN)NC(=O)[C@H](Cc2ccccc2)NC(=O)[C@H](Cc2ccccc2)NC1=O) [c[Pro-Arg-Phe-Phe-Dap-Ser-Phe-DPro]]
antagonist pA2 (Schild, agonist NDP-MSH): 6.8

binder: cyclo(PRF[hPhe]RA[Nle][dP]) (SMILES CCCC[C@@H]1NC(=O)[C@H](C)NC(=O)[C@H](CCCNC(=N)N)NC(=O)[C@H](CCc2ccccc2)NC(=O)[C@H](Cc2ccccc2)NC(=O)[C@H](CCCNC(=N)N)NC(=O)[C@@H]2CCCN2C(=O)[C@H]2CCCN2C1=O) [c[Pro-Arg-Phe-hPhe-Arg-Ala-Nle-DPro]]
antagonist pA2 (Schild, agonist NDP-MSH): 7.5

binder: cyclo(PRF[hPhe][Dap]S[Nle][dP]) (SMILES CCCC[C@@H]1NC(=O)[C@H](CO)NC(=O)[C@H](CN)NC(=O)[C@H](CCc2ccccc2)NC(=O)[C@H](Cc2ccccc2)NC(=O)[C@H](CCCNC(=N)N)NC(=O)[C@@H]2CCCN2C(=O)[C@H]2CCCN2C1=O) [c[Pro-Arg-Phe-hPhe-Dap-Ser-Nle-DPro]]
antagonist pA2 (Schild, agonist NDP-MSH): 6.7

binder: PRFFXAFP (head-to-tail cyclic; hPhe at 4; Dap at 5; DPro at 8) [c[Pro-Arg-Phe-hPhe-Dap-Ala-Phe-DPro]]
antagonist pA2 (Schild, agonist NDP-MSH): 7.1

binder: cyclo(PRF[hPhe]RS[Nle][dP]) (SMILES CCCC[C@@H]1NC(=O)[C@H](CO)NC(=O)[C@H](CCCNC(=N)N)NC(=O)[C@H](CCc2ccccc2)NC(=O)[C@H](Cc2ccccc2)NC(=O)[C@H](CCCNC(=N)N)NC(=O)[C@@H]2CCCN2C(=O)[C@H]2CCCN2C1=O) [c[Pro-Arg-Phe-hPhe-Arg-Ser-Nle-DPro]]
antagonist pA2 (Schild, agonist NDP-MSH): 7.9

binder: cyclo(PRF[hPhe][Dap]A[Nle][dP]) (SMILES CCCC[C@@H]1NC(=O)[C@H](C)NC(=O)[C@H](CN)NC(=O)[C@H](CCc2ccccc2)NC(=O)[C@H](Cc2ccccc2)NC(=O)[C@H](CCCNC(=N)N)NC(=O)[C@@H]2CCCN2C(=O)[C@H]2CCCN2C1=O) [c[Pro-Arg-Phe-hPhe-Dap-Ala-Nle-DPro]]
antagonist pA2 (Schild, agonist NDP-MSH): 6.7
